Assay: soluble on expression in E. coli; label from the status in PepcDB or PDB records
Reported Property: soluble on expression in E. coli

INSERT INTO results (sequence_text, reported_property, assay_result) VALUES
  ('GPGSFIDPPSDQGMSDAFYQLLYFGAVDDGLQLTDFGRRMAVLPVDVCLARMLLMAPKHGCGADAAVVAAMLEAGNAFSRPPSRLAEAREAHARFDNADGDHVALFRVFHAYFKNQQNGKRFCYENYLRHQTLQQAVQVYKQLRRLMSQLMIPVQSTYIPEREYVDTVALRKAVLEGFFTQVAFLTPVAPITH', 'soluble on expression in E. coli', 'not soluble'),
  ('MDEGVKEKFIGAVLGAAVGDALGKSVEDITEEEVFEFYGDRIRDFVTPHPSSPAYGQLPEETSDETTIFRLLLESLVEKKALDVRDFLNRLMEWYDREEMHRYPDPMLLTAIDLLSRGINPSTHGLTSFSVEGILRSVALGLYHYYNPELAAEGSKVVSLLTHRSDVISDASAILGALIAHLVRGDFYLEDFREKLRLIETLKDYAKEEKHKKILDRVAELLMESADLETAINTLGNGTFAFEAFPLALYIFLSNVENPEEALFQAVNSYGEFGGDTDAIGFLVGAMLGAYYGEEAIPYHLRENVENSQKLRELAERLYEVVEKQVGFSQ', 'soluble on expression in E. coli', 'not soluble');
